biological target: SB100X transposase (synthetic Sleeping Beauty transposon, K14R;K33A;R115H;R214D;K215A;E216V;N217Q;M243H;T314N); experiment: fluorescence lifetime; Full-length MST: 50 mM Tris pH 7.5, 5 mM MgCl2, 300 mM NaCl, 2% glycerol, 50 mM Arg-Glu, 1 mM TCEP, 0.1% Triton X-100, 0.1 mg/ml BSA, 30 nM Cy5-DNA, room temp; settings: protein: recombinant; tags: Ni-NTA purified; label: 5' Cy5 on forward strand (MST)
Result type: pKd
Units for pKd: none; it is -log10 of a concentration expressed in mol/L.

Previously resolved entries follow.
* Li (dsDNA) DNA 1: TCCAGTGGGTCAGAAGTTTACATACACTAAGT DNA 2: ACTTAGTGTATGTAAACTTCTGACCCACTGGA | 7.59
* DR-core (dsDNA) DNA 1: TCGGAAGTTTACATACAC DNA 2: GTGTATGTAAACTTCCGA | 7.50

API: the following record is the query input.
Supply recorded pKd for Lo (dsDNA) DNA 1: CAGTTGAAGTCGGAAGTTTACATACACTTAAG DNA 2: CTTAAGTGTATGTAAACTTCCGACTTCAACTG here.
7.80
